- Assay System: Serotonin 3 (5-HT3) receptor (Rattus norvegicus) (UniProt P35563+Q9JJ16)
- Assay Details: Selectivity ratio of peroral vs intravenous delivery
- Type: functional
Value Kind: Ratio
One number for each entry.

Consider the following illustrative entries.
CN1[C@@H]2CC[C@H]1C[C@@H](OC(=O)c1c[nH]c3ccccc13)C2: 50
CN1C2CCC1CC(NC(=O)c1n[nH]c3ccccc13)C2 (centres undefined): 10
CN1C2CCCC1CC(NC(=O)c1nn(C)c3ccccc13)C2 (centres undefined): 15

Now turn to the next compound.
Please report the recorded Ratio for CN1C2CCC1CC(OC(=O)c1[nH]nc3ccccc13)C2 (centres undefined) .
66

----------
For each record, write down the corresponding ED50.
- Assay System: Serotonin 3 (5-HT3) receptor (Rattus norvegicus) (UniProt P35563+Q9JJ16)
- Assay Details: The compound was evaluated for the inhibition of the von Bezold-Jarisch reflex in rat administered intravenously
- Assay type: functional
Numbers only, in µg/kg.

For each listed entry, give its ED50.
1. CN1C2CCC1CC(OC(=O)c1[nH]nc3ccccc13)C2 (centres undefined)
2. CN1C2CCC1CC(NC(=O)c1n[nH]c3ccccc13)C2 (centres undefined)
3. CN1[C@@H]2CC[C@H]1C[C@@H](OC(=O)c1c[nH]c3ccccc13)C2

[3, 2, 4]
